# TESTED_TARGET: glucagon receptor (GCGR), primary cAMP assay cell line (human, UniProt P47871 26-477)
# Sequence (P47871 26-477): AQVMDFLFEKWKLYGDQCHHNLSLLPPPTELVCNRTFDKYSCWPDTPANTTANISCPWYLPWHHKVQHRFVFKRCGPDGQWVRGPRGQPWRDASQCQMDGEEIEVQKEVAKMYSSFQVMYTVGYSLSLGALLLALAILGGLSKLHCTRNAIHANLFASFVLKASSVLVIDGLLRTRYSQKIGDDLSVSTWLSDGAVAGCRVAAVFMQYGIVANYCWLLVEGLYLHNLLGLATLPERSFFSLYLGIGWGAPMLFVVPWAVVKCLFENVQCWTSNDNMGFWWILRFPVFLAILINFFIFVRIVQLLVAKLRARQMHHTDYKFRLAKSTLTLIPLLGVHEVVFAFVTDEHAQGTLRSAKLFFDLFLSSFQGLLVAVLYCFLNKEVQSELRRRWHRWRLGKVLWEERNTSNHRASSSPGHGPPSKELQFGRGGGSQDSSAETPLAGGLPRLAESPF
# METHOD_NOTES: cell-based or functional assay
Starred links: 1 amine or outer side, 2 acyl side, 3 side chain; linkers in the order of their positions; H or OH if unused. Non-standard residues stand in square brackets, D forms with d. Groups on a side chain read outwards from the residue. Primed or numbered codes have the meaning given here. No end group written: not given here. *: point of attachment. γGlu = O=C(O)[C@H](CCC(=O)[*:2])N[*:1]; αMeF = C[C@](N)(Cc1ccccc1)C(=O)O; αMeK = C[C@](N)(CCCCN)C(=O)O; Lauroyl = CCCCCCCCCCCC(=O)*; PEG2′ = not defined here; Aib = CC(C)(N)C(=O)O
ENDPOINT_NAME: cAMP Primary assay EC50, n1 (µM)
Record the value in µM, omitting the unit from your answer.

H[Aib]EGS[αMeF]TSDK([PEG2′-PEG2′-γGlu-Lauroyl])SSYLEGEAA[αMeK]K([PEG2′-PEG2′-γGlu-Lauroyl])FIAFK([PEG2′-PEG2′-γGlu-Lauroyl])VEGG-NH2 [SEQ ID NO: 474] ... 0.0199

# evaluate next
input: Which cAMP Primary assay EC50, n1 value belongs to H[Aib]EGS[αMeF]TSDVSK([PEG2′-PEG2′-γGlu-Lauroyl])YLEGEAA[αMeK]K([PEG2′-PEG2′-γGlu-Lauroyl])FIAFK([PEG2′-PEG2′-γGlu-Lauroyl])VEGG-NH2 [SEQ ID NO: 478] ?
output: 0.0198
